MEASURED PROPERTY: glass transition temperature (°C)
Output spec: scalar in °C, unitless text.

Looking for the measured glass transition temperature of *CC(COCC=C)O* (repeat unit) [poly(allyl glycidyl ether)] , can you help? -35.33

Next up: *C(*)C(=O)OCC (repeat unit) 13.50

Next up: *C(=O)c1ccc2c(c1)C(=O)N(c1cccc(OCCOCCOc3cccc(N4C(=O)c5ccc(*)cc5C4=O)c3)c1)C2=O (repeat unit) 155.00

Next up: *OP(=O)(Oc1ccc(*)cc1)OC1CCCCC1 (repeat unit) 108.00

Next up: *C(=O)Nc1ccc2c(c1)-c1cc(NC(=O)c3ccc4c(c3)C(=O)N(c3cccc(P(=O)(c5ccccc5)c5cccc(N6C(=O)c7ccc(*)cc7C6=O)c5)c3)C4=O)ccc1C2 (repeat unit) 248.00

Next up: *c1ccc(C(c2ccccc2)c2ccc(N3C(=O)c4ccc(S(=O)(=O)c5ccc6c(c5)C(=O)N(*)C6=O)cc4C3=O)cc2)cc1 (repeat unit) 305.00

Next up: *c1ccc(Oc2ccc(-n3nc(-c4ccccc4)cc3-c3ccc(-c4cc(-c5ccccc5)nn4*)cc3)cc2)cc1 (repeat unit) 260.00

---

Friendly reminder: glass transition temperature below 100 °C is 1, at or above is 0.

Confirm or reject: glass transition temperature of *CC(*)(CC(=O)OCC(C)C)C(=O)OCC(C)C (repeat unit) lies strictly below 100 °C 0

Next up: *CC(*)c1ccc(CCl)cc1 (repeat unit) 0

Next up: *CCCCCCCCCCN1C(=O)c2ccc(Oc3ccc4c(c3)C(=O)N(*)C4=O)cc2C1=O (repeat unit) 1

Next up: *Sc1ccc(*)cc1 (repeat unit) [Poly[thio(p-phenylene)] ] 1

Next up: *c1ccc2oc(-c3ccc(Oc4ccc(C(c5ccc(Oc6ccc(-c7nc8cc(C(*)(C(F)(F)F)C(F)(F)F)ccc8o7)cc6)cc5)(C(F)(F)F)C(F)(F)F)cc4)cc3)nc2c1 (repeat unit) 0

Next up: *c1c(C)cc(-c2cc(C)c(N3C(=O)c4ccc(Oc5c(C)cc(Cc6cc(C)c(Oc7ccc8c(c7)C(=O)N(*)C8=O)c(C)c6)cc5C)cc4C3=O)c(C)c2)cc1C (repeat unit) 0

Next up: *c1ccc(-c2ccc(N(c3ccc(OC)cc3)c3ccc4ccc(N(*)c5ccc(OC)cc5)cc4c3)cc2)cc1 (repeat unit) 0

Next up: *OP(=O)(Oc1ccc(C(C)(C)c2ccc(*)cc2)cc1)OC1CCCCC1 (repeat unit) 1

Next up: *=NP(=NP(=NC(=*)Oc1ccc(C(F)(F)F)cc1)(Oc1ccc(C(F)(F)F)cc1)Oc1ccc(C(F)(F)F)cc1)(Oc1ccc(C(F)(F)F)cc1)Oc1ccc(C(F)(F)F)cc1 (repeat unit) 1

Next up: *c1ccc(N(c2ccc(C#N)cc2)c2ccc(N3C(=O)c4ccc(Oc5ccc(C6(c7ccc(Oc8ccc9c(c8)C(=O)N(*)C9=O)cc7)CCCCC6)cc5)cc4C3=O)cc2)cc1 (repeat unit) 0

Next up: *CCOCCOCCOc1ccc(NC(=O)c2cccc(C(=O)Nc3ccc(O*)cc3)c2)cc1 (repeat unit) 0

Next up: *C(=O)c1ccc2c(c1)C(=O)N(c1ccc(Cl)c(N3C(=O)c4ccc(*)cc4C3=O)c1)C2=O (repeat unit) 0

Next up: *c1ccc(Oc2ccc(Oc3ccc(N4C(=O)c5ccc(Oc6ccc(C7(c8ccc(Oc9ccc%10c(c9)C(=O)N(*)C%10=O)cc8)CCC(c8ccccc8)CC7)cc6)cc5C4=O)cc3)c(C(C)(C)C)c2)cc1 (repeat unit) 0

Next up: *CC(O)COc1ccc(C(C)(c2ccccc2)c2ccc(O*)cc2)cc1 (repeat unit) 0

Next up: *O[Si](C)(C)Oc1ccc(C(C)(C)c2ccc(*)cc2)cc1 (repeat unit) 1

Next up: *CCCCCC(=O)Oc1ccc(C(C)(C)c2ccc(C(C)(C)c3ccc(OC(=O)c4ccc5c(c4)C(=O)N(*)C5=O)cc3)cc2)cc1 (repeat unit) 0

Next up: *CC(*)(C)C(=O)Oc1cc(C)cc(C)c1 (repeat unit) 0

Next up: *C(CC)COC(=O)NCCCCCCNC(=O)OCC(CC)n1c(=O)c2cc3c(=O)n(*)c(=O)c3cc2c1=O (repeat unit) 1

Next up: *C(=O)c1ccc2c(c1)/C(=N\c1ccc(Oc3cccc(/N=C4/OC(=O)c5ccc(*)cc54)c3)cc1)OC2=O (repeat unit) 0

Next up: *c1cc(CCCCCCOC(=O)Cc2ccccc2)c(*)s1 (repeat unit) 1

Next up: *c1ccc(N2C(=O)c3ccc(C(=O)c4ccc5c(c4)C(=O)N(c4ccc(-c6nc7cc(-c8ccc9nc(-c%10ccccc%10)c(*)nc9c8)ccc7nc6-c6ccccc6)cc4)C5=O)cc3C2=O)cc1 (repeat unit) 0

Next up: *c1ccc(Oc2ccc(C(=O)c3ccc(Oc4ccc(C5(*)c6ccccc6C(=O)N5C)cc4)cc3)cc2)cc1 (repeat unit) 0

Next up: *C(=O)Nc1ccc(Cc2ccc(NC(=O)c3ccc4c(c3)C(=O)N(c3c(C)cc(-c5cc(C)c(N6C(=O)c7ccc(*)cc7C6=O)c(C)c5)cc3C)C4=O)c(C)c2)cc1C (repeat unit) 0

Next up: *OC(=O)c1cccc(C(*)=O)c1 (repeat unit) 0

Next up: *CC(*)OCCOc1ccc(/N=N/c2ccc([N+](=O)[O-])cc2)cc1 (repeat unit) 1

Next up: *c1ccc(S(=O)(=O)c2ccc(-n3nccc3-c3cccc(-c4ccnn4*)c3)cc2)cc1 (repeat unit) 0

Next up: *O[Si](C)(C)c1cccc2c([Si](*)(C)C)cccc12 (repeat unit) 1
